These data points were gathered from patent US20240343747A1.

- target.or.system: TYK2 (Mus musculus (Mouse))
- Sequence (Q9R117 whole entry): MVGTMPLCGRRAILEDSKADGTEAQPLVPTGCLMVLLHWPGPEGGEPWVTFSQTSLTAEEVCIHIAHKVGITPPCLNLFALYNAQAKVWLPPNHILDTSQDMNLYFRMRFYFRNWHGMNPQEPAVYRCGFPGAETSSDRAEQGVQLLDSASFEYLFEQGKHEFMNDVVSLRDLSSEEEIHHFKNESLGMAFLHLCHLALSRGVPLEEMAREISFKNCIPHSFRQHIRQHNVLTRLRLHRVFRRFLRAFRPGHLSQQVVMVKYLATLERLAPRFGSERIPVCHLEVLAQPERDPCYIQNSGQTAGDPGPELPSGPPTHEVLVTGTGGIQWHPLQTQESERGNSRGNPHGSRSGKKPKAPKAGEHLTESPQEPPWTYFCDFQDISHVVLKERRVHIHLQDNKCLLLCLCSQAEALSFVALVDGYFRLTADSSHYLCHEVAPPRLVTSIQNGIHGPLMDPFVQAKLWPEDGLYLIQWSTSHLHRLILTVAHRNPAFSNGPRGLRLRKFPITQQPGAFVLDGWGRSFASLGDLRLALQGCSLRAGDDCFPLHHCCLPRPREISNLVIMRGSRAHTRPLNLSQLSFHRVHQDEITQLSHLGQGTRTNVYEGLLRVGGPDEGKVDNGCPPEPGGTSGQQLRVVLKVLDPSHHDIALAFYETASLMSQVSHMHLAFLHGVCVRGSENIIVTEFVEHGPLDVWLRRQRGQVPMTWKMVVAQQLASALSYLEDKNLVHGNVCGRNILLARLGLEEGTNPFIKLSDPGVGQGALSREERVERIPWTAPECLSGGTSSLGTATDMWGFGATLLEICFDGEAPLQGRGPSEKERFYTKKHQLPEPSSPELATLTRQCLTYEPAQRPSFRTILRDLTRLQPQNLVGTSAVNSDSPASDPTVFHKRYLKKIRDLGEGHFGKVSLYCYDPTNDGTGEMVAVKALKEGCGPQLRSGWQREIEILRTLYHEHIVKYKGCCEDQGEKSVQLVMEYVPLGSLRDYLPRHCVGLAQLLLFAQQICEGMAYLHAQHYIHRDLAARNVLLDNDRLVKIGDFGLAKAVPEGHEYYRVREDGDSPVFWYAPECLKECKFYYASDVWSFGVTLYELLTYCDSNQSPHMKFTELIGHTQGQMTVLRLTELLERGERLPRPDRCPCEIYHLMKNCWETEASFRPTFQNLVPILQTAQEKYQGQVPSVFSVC
- test.protocol: Luciferase assay in L929 ISRE cells stimulated with IFN-α
- Assay type: cell-based
- cond: 1000 nM, IFN-α 100 ng/mL, read-out: Inhibitory activity % (1000 nM)
observable: inhibition at 1 µM (%)

Previously resolved entries follow.
CCC(=O)c1cnc(NC(=O)C2CC2)cc1Nc1cccc(-c2cc(P(=O)(CC)CC)n(C)n2)c1OC
93
CCC(=O)c1cnc(NC(=O)C2CC2)cc1Nc1cccc(-c2ccc(P(C)(C)=O)nn2)c1OC
33
CCC(=O)c1cnc(NC(=O)C2CC2)cc1Nc1cccc(-c2cc(P(=O)(C3CC3)C3CC3)n(C)n2)c1OC
97
CCC(=O)c1cnc(NC(=O)C2CC2)cc1Nc1nccc(-c2cc(P(C)(C)=O)n(C)n2)c1OC
88
CCC(=O)c1cnc(NC(=O)C2CC2)cc1Nc1cccc(-c2ccc(P(C)(C)=O)nc2)c1OC
49
[2H]C([2H])([2H])n1nc(-c2cccc(Nc3cc(NC(=O)C4CC4)ncc3C(=O)CC)c2OC)cc1P(=O)(CC)CC
87

a. CCC(=O)c1nnc(NC(=O)C2CC2)cc1Nc1cccc(-c2ccc(P(C)(C)=O)cn2)c1OC
b. CCC(=O)c1cnc(NC(=O)C2CC2)cc1Nc1cccc(-c2cc(P(C)(C)=O)n(C3CC3)n2)c1OC
c. CCC(=O)c1cnc(NC(=O)C2CC2)cc1Nc1cccc(-c2cc(P(C)(C)=O)n(C)n2)c1C#N
d. [2H]C([2H])([2H])NC(=O)c1nnc(NC(=O)C2CC2)cc1Nc1cccc(-c2cc(P(=O)(C3CC3)C3CC3)n(C)n2)c1OC
e. CCC(=O)c1cnc(NC(=O)C2CC2)cc1Nc1cccc(-c2nc(P(C)(C)=O)ns2)c1OC
Reorder: inhibition at 1 µM, max to min. To answer, write out the labels according to the requested order.
d, b, a, c, e
